Numbers sourced from PubChem BioAssay AID493240.

# PROCEDURE_DETAILS: SK-MEL-5 parental cell viability loss, dose response, orthogonal assay for MITF inhibitor project, CellTiter-Glo, cherry-picked, set 3 (AID 493240)
# TEST_CONDITIONS: SK-MEL-5 viability, ATP luminescence (CellTiter-Glo), 24 h; series mostly up to 35 µM
About 270 (21%) of roughly 1,300 compounds were called active. The list is a sample of the results. Measured potencies and affinities stand elsewhere.
PROPERTY: outcome

[[record]]
compound = "CC1(C(=O)N/N=C/c2ccc([N+](=O)[O-])o2)CC1(Br)Br (stereo not drawn)"
property = "outcome"
result = "inactive"

[[record]]
compound = "Clc1ccc(-c2noc(CN3CCOCC3)n2)cc1"
property = "outcome"
result = "inactive"

[[record]]
compound = "COC(=O)CSC1=C(C#N)C(=O)NC(c2ccccc2)S1 (stereo not drawn)"
property = "outcome"
result = "inactive"

[[record]]
compound = "Nc1ccc(-c2nc3c(Cl)cc(N)cc3[nH]2)cc1"
property = "outcome"
result = "inactive"

[[record]]
compound = "CC(C)(C)C(=O)/C(=C/c1ccncc1)n1cncn1"
property = "outcome"
result = "inactive"

[[record]]
compound = "CC(=O)OCCNc1cc(Sc2nc3ccccc3[nH]2)c2nonc2c1[N+](=O)[O-]"
property = "outcome"
result = "inactive"

[[record]]
compound = "CCOC(=O)C1(Cc2ccccc2)CCCN(CCCn2cccn2)C1 (stereo not drawn)"
property = "outcome"
result = "inactive"

[[record]]
compound = "O=C(O)C1CCN(C(=O)OCc2ccccc2)CC1"
property = "outcome"
result = "inactive"

[[record]]
compound = "C=CCn1c(C)cc(C(=O)CN2C(=O)c3ccccc3S2(=O)=O)c1C"
property = "outcome"
result = "inactive"

[[record]]
compound = "O=C(/C=C/c1ccc(Cl)cc1)c1ccc([N+](=O)[O-])o1"
property = "outcome"
result = "inactive"

[[record]]
compound = "CC(=O)CSc1ccc(-c2nc3cc(C)c(C)cc3[nH]2)cn1"
property = "outcome"
result = "inactive"

[[record]]
compound = "CC(=O)OCCCNc1cc(Sc2ccc(Cl)cc2)c2nonc2c1[N+](=O)[O-]"
property = "outcome"
result = "inactive"

[[record]]
compound = "CCOC(=O)c1cn2nc(Oc3ccccc3)ccc2n1"
property = "outcome"
result = "inactive"

[[record]]
compound = "CC(C)(CO)NC(=O)c1ccc2nc(Cc3cccc(Cl)c3)oc2c1"
property = "outcome"
result = "inactive"

[[record]]
compound = "COc1cccc(/C=N/NC(=O)CN2CC(c3ccccc3)CC2=O)c1OC (stereo not drawn)"
property = "outcome"
result = "inactive"

[[record]]
compound = "O=C(Cc1ccc2c(c1)OCO2)NN=Cc1ccc([N+](=O)[O-])o1"
property = "outcome"
result = "inactive"

[[record]]
compound = "O=C(NC(=S)Nc1ccccn1)c1cccc([N+](=O)[O-])c1"
property = "outcome"
result = "inactive"

[[record]]
compound = "N/C(=N\\OC(=O)c1ccccc1Cl)c1cccc([N+](=O)[O-])c1"
property = "outcome"
result = "inactive"

[[record]]
compound = "O=C(O)c1ccccc1C(=O)Nc1ccc(Oc2cccc3ccccc23)cc1"
property = "outcome"
result = "inactive"

[[record]]
compound = "O=C(Nc1ccc2nc3n(c(=O)c2c1)CCCCC3)c1cc([N+](=O)[O-])ccc1F"
property = "outcome"
result = "inactive"

[[record]]
compound = "O=C(c1ccc(F)cc1)C(CN1CCOCC1)c1ccccc1 (stereo not drawn)"
property = "outcome"
result = "inactive"

[[record]]
compound = "CC(=O)SC(C[N+](=O)[O-])c1cn(C(C)=O)c2ccccc12 (stereo not drawn)"
property = "outcome"
result = "inactive"

[[record]]
compound = "Cc1ccc(S(=O)(=O)Nc2cccc3cccnc23)cc1"
property = "outcome"
result = "inactive"


----------
# PROCEDURE_DETAILS: SK-MEL-5 parental cell viability loss, dose response, orthogonal assay for MITF inhibitor project, CellTiter-Glo, cherry-picked, set 3 (AID 493240)
# TEST_CONDITIONS: SK-MEL-5 viability, ATP luminescence (CellTiter-Glo), 24 h; series mostly up to 35 µM
The campaign covered roughly 1,300 compounds. About 270 (21%) were called active. Not all results are given here. Entries with a potency or affinity are not part of this list.
PROPERTY: outcome

[[record]]
molecule = "N#Cc1cc2c(nc1SC1CC(=O)N(c3ccccc3)C1=O)CCC2 (configuration not stated)"
property = "outcome"
result = "inactive"

[[record]]
molecule = "Cc1ccc(CC(=O)Nc2ccc(Cl)cn2)cc1"
property = "outcome"
result = "inactive"

[[record]]
molecule = "N/C(=N\\OC(=O)c1ccncc1)c1cccc([N+](=O)[O-])c1"
property = "outcome"
result = "inactive"

[[record]]
molecule = "Oc1ccc(CNc2ccccc2F)c2cccnc12"
property = "outcome"
result = "inactive"

[[record]]
molecule = "O=C(Nc1ccc([N+](=O)[O-])cc1)c1ccccc1"
property = "outcome"
result = "inactive"

[[record]]
molecule = "CC(C)C(=O)N1CCN(c2ccc(NC(=O)c3ccc([N+](=O)[O-])o3)cc2Cl)CC1"
property = "outcome"
result = "inactive"

[[record]]
molecule = "N#Cc1nc(/C=C/c2ccccc2)oc1NCCCN1CCOCC1"
property = "outcome"
result = "inactive"

[[record]]
molecule = "COc1ccc(/C=N/NC(=O)Cc2cccs2)cc1"
property = "outcome"
result = "inactive"

[[record]]
molecule = "O=C(N/N=C/c1ccccc1)c1ccco1"
property = "outcome"
result = "inactive"

[[record]]
molecule = "O=c1c(Cl)c(Cl)cnn1Cc1ccc(F)cc1"
property = "outcome"
result = "inactive"

[[record]]
molecule = "COc1ccc(N(C(=O)CCl)C(C(=O)NC2CCCCC2)c2cccnc2)cc1 (configuration not stated)"
property = "outcome"
result = "inactive"

[[record]]
molecule = "COc1ccc2oc(=N)c(C(=O)Nc3ccccc3Cl)cc2c1"
property = "outcome"
result = "inactive"

[[record]]
molecule = "CCOc1cccc(C(=O)NC2=NCCS2)c1"
property = "outcome"
result = "inactive"

[[record]]
molecule = "CN(C)c1ccc(/C=C2\\SC(=O)N(CCc3nnc(N)s3)C2=O)cc1"
property = "outcome"
result = "inactive"

[[record]]
molecule = "O=C(NCc1ccccc1)NC1(C(=O)Nc2ccc3c(c2)OCCO3)CCCCC1"
property = "outcome"
result = "inactive"

[[record]]
molecule = "COCn1c(COc2ccccc2)nc2ccccc21"
property = "outcome"
result = "inactive"

[[record]]
molecule = "COCCN(C(=O)CCl)C(C(=O)NC1CCCCC1)c1ccccc1C (configuration not stated)"
property = "outcome"
result = "inactive"

[[record]]
molecule = "C=Cc1ncc(OC)c2c1[nH]c1ccccc12"
property = "outcome"
result = "inactive"

[[record]]
molecule = "NC(=O)c1c(NC(=O)c2cccnc2)sc2c1CCCCC2"
property = "outcome"
result = "inactive"

[[record]]
molecule = "Cc1csc(NC(=O)Cc2c(F)cccc2Cl)n1"
property = "outcome"
result = "inactive"

[[record]]
molecule = "Cc1ccc(NC(=O)c2cc(N3C(=O)C=CC3=O)ccc2N2CCOCC2)cc1"
property = "outcome"
result = "inactive"

[[record]]
molecule = "O=C(COc1ccc2c(c1)CCC2)N1CCc2ccccc21"
property = "outcome"
result = "inactive"

[[record]]
molecule = "O=C(Cc1ccccc1)Nc1ccc(NC(=O)c2ccco2)nc1"
property = "outcome"
result = "inactive"

[[record]]
molecule = "CC(C)c1ccc(/C=C2\\SC(=S)N(CCC(=O)N3CCCCC3CCO)C2=O)cc1 (configuration not stated)"
property = "outcome"
result = "inactive"

[[record]]
molecule = "CCc1nc2oc3ccccc3c(=O)c2cc1C(=O)OC"
property = "outcome"
result = "inactive"

[[record]]
molecule = "CCCOC(=O)c1ccc(NC(=O)C2CCCO2)cc1 (configuration not stated)"
property = "outcome"
result = "inactive"

[[record]]
molecule = "COc1ccc(N(CC(=O)NCC2CCCO2)S(=O)(=O)c2ccccc2)cc1OC (configuration not stated)"
property = "outcome"
result = "inactive"

[[record]]
molecule = "O=C(COC(=O)CCN1C(=O)/C(=C\\C=C\\c2ccccc2)SC1=S)Nc1cc(F)ccc1F"
property = "outcome"
result = "inactive"

[[record]]
molecule = "Cc1cn(CCC(=O)Nc2ccccc2N2CCOCC2)c2ccccc12"
property = "outcome"
result = "inactive"

[[record]]
molecule = "O=C(Nc1ccc2nc(-c3ccccc3)[nH]c2c1)c1ccco1"
property = "outcome"
result = "inactive"

[[record]]
molecule = "CSc1nc(N)n2nc(-c3ccccc3)cc2n1"
property = "outcome"
result = "inactive"

[[record]]
molecule = "Cc1c(C#N)c(O)n(CCO)c(=O)c1N=Nc1ccc2c(c1)COC2=O"
property = "outcome"
result = "inactive"

[[record]]
molecule = "COc1ccc(C(C(=O)NC2CCCCC2)N(C(=O)CCl)c2ccc(OC)cc2)cc1 (configuration not stated)"
property = "outcome"
result = "inactive"

[[record]]
molecule = "O=C(CCl)N(Cc1cc(=O)[nH]c2ccccc12)c1ccccc1"
property = "outcome"
result = "inactive"

[[record]]
molecule = "O=C(/C=C/c1ccccc1Cl)NC1CCCCC1"
property = "outcome"
result = "inactive"

[[record]]
molecule = "CC1=NOC(=O)/C1=C\\c1ccc(-c2cccc(Cl)c2)o1"
property = "outcome"
result = "inactive"

[[record]]
molecule = "Cc1cccc(OCc2nc3ccccc3n2C)c1"
property = "outcome"
result = "inactive"

[[record]]
molecule = "O=C1c2ccccc2C(=O)c2c1ncn2-c1ccccc1"
property = "outcome"
result = "inactive"

[[record]]
molecule = "CC1CCCCC1NC(=O)/C(C#N)=C/c1ccccc1F (configuration not stated)"
property = "outcome"
result = "inactive"

[[record]]
molecule = "CN(C)c1ccc(-n2cccc2/C=C/[N+](=O)[O-])cc1"
property = "outcome"
result = "inactive"

[[record]]
molecule = "CCCN(CCC)C1=CC(=[N+]2CCCC2)CC(C)(C)C1"
property = "outcome"
result = "inactive"

[[record]]
molecule = "COc1ccc(/C=N/Nc2cc(C)nc(-n3nc(C)cc3C)n2)c(OC)c1"
property = "outcome"
result = "inactive"

[[record]]
molecule = "Cc1cccc(NC(=O)c2ccc([N+](=O)[O-])o2)c1C"
property = "outcome"
result = "inactive"

[[record]]
molecule = "O=C(/C=C/c1ccccc1)Nc1cccc(C(=O)O)c1"
property = "outcome"
result = "inactive"

[[record]]
molecule = "COC(=O)c1ccc(Nc2cc(C)nc3ccc(C)cc23)cc1"
property = "outcome"
result = "inactive"

[[record]]
molecule = "CC(=O)c1ccc(Sc2nnnn2-c2ccccc2)c([N+](=O)[O-])c1"
property = "outcome"
result = "inactive"

[[record]]
molecule = "CCCC(=O)N1CCN(c2ccc(NC(=O)c3ccc([N+](=O)[O-])o3)cc2Cl)CC1"
property = "outcome"
result = "inactive"

